# aptazyme ON/OFF ratio per record follows
B1: Pistol ribozyme (parent)
chain: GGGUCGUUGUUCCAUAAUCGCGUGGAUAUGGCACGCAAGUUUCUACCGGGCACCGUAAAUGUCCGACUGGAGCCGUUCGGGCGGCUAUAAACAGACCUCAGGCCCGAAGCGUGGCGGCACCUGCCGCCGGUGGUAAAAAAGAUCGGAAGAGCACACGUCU

variants of: B1; assay: aptazyme ON/OFF ratio, guanine; higher = stronger switching; co-transcriptional cleavage with and without guanine
Just the number, please, no unit attached.

[[record]]
changes = "U7G U8C U11C C12G C13U"
data_value = 1.46

[[record]]
changes = "U8A U10C U11C C12G C13G"
data_value = 1.1

[[record]]
changes = "U8A G9C U11C C12U C13A"
data_value = 1.05

[[record]]
changes = "U7A U8G U10A U11G C12G C13U"
data_value = 1.46

[[record]]
changes = "U7A U8A G9U U10C U11A C12G C13A"
data_value = 1.25

[[record]]
changes = "U8C G9A U10C U11C C12G C13G"
data_value = 1.3

[[record]]
changes = "U8G G9U U10G U11A C12G C13U"
data_value = 1.04

[[record]]
changes = "U7A U8C G9U C13U"
data_value = 1.23


Fill in the blank: the reported aptazyme ON/OFF ratio of U7C G9U U10A U11C C12U C13G is ____. 1.03

Next variant: U7G G9U U10A U11C 1.17

Next variant: U7A U8C U11A 1.14

Next variant: U8G G9C U10C U11G C12A C13A 1.08

Next variant: U7A U8A G9U U10G U11G C12U C13A 1.47

Next variant: G9A U11G C13G 1.1

Next variant: U7G G9U U11G C12A C13A 1.11

Next variant: U7C U8A G9U U11G C12A C13G 1.16

Next variant: U7A U8A G9C U10G C13A 1.24

Next variant: U7G G9A C12A 1.25

Next variant: U7G U8A G9U U10C U11A C12A C13G 1.06

Next variant: U7A U8G U10C U11A C13U 1.21

Next variant: U7C U8C G9U U10G U11C C12A C13U 1.1

Next variant: U7A U8G U10C C13G 1.32

Numbers sourced from the RNAGym collection of RNA variant scans (doi:10.1021/acssynbio.7b00057).
